# System: MDA-MB-231
# assay.comment: Cell growth inhibition, 4-day proliferation assay, MDA-MB-231
# Assay type: cell-based
# run.conditions: Homo sapiens, MDA-MB-231; WST-8 assay, Table 7; read-out: Cell growth inhibition (IC50 (nM)) MDA-MB-231
# Experimental: The effect of representative Compounds of the Disclosure on cell viability was determined in a 4-day proliferation assay. Cells were maintained in the appropriate culture medium with 100/0 FBS at 37° C. and an atmosphere of 5% CO2. All the cell lines were used within three months of thawing fresh vials. […]
Under this convention, Criterion met denotes IC50 strictly below 200 nM and Criterion not met denotes IC50 at or above 200 nM.

Example entries begin here.
1. Cc1c(C#Cc2cccnc2)sc2c1C(c1ccc(Cl)cc1)=N[C@@H](CC(=O)N1CCN(C)CC1)c1nnc(C)n1-2 Criterion met
2. Cc1c(C#Cc2cnn(C)c2)sc2c1C(c1ccc(Cl)cc1)=N[C@@H](CC(N)=O)c1nnc(C)n1-2 Criterion not met
3. Cc1c(C#Cc2ccc(N)nc2)sc2c1C(c1ccc(Cl)cc1)=N[C@@H](CC(C)C)c1nnc(C)n1-2 Criterion not met

State whether 200 nM exceeds IC50 recorded for Cc1c(C#Cc2ccc(N)nc2)sc2c1C(c1ccc(Cl)cc1)=N[C@@H](CC(N)=O)c1nnc(C)n1-2 .
Criterion met

State whether 200 nM exceeds IC50 recorded for Cc1c(C#Cc2ccccn2)sc2c1C(c1ccc(Cl)cc1)=N[C@@H](CC(=O)N1CC(C)(O)C1)c1nnc(C)n1-2 .
Criterion not met

State whether 200 nM exceeds IC50 recorded for Cc1nnc(C[C@@H]2N=C(c3ccc(Cl)cc3)c3c(sc(C#CC4CCOCC4)c3C)-n3c(C)nnc32)o1 .
Criterion met

State whether 200 nM exceeds IC50 recorded for Cc1c(C#Cc2ccccn2)sc2c1C(c1ccc(Cl)cc1)=N[C@@H](CC(=O)NC1CCNCC1)c1nnc(C)n1-2 .
Criterion not met

----------
# IC50 per record follows
# System: MDA-MB-231
# assay.comment: Cell growth inhibition, 4-day proliferation assay, MDA-MB-231
# Assay type: cell-based
# run.conditions: Homo sapiens, MDA-MB-231; WST-8 assay, Table 7; read-out: Cell growth inhibition (IC50 (nM)) MDA-MB-231
Hi! Could you send only the number? It should be in nM, unit omitted.

# count of solved cases: 2
compound	IC50 / nM
Cc1c(C#Cc2ccccn2)sc2c1C(c1ccc(Cl)cc1)=N[C@@H](CC(=O)N1CCC(O)CC1)c1nnc(C)n1-2 [Compound 123]	61.1
Cc1c(C#Cc2ccccn2)sc2c1C(c1ccc(Cl)cc1)=N[C@@H](CC(=O)N1CCC(F)CC1)c1nnc(C)n1-2 [Compound 173]	9.67

Could you tell me which IC50 is on file for Cc1c(C#Cc2ccccn2)sc2c1C(c1ccc(Cl)cc1)=N[C@@H](Cc1nnc(C(C)C)o1)c1nnc(C)n1-2 [Compound 135] ?
24.5

Could you tell me which IC50 is on file for Cc1c(C#Cc2ccccn2)sc2c1C(c1ccc(Cl)cc1)=N[C@@H](CC(=O)N1CCC(F)(F)CC1)c1nnc(C)n1-2 [Compound 132] ?
91.9

Could you tell me which IC50 is on file for Cc1c(C#Cc2cnn(C)c2)sc2c1C(c1ccc(Cl)cc1)=N[C@@H](CC(=O)N1CCN(C(=O)OC(C)(C)C)CC1)c1nnc(C)n1-2 [Compound 160] ?
108

Could you tell me which IC50 is on file for Cc1nnc(C[C@@H]2N=C(c3ccc(Cl)cc3)c3c(sc(C#Cc4cnn(C)c4)c3C)-n3c(C)nnc32)o1 [Compound 141] ?
31.2

Could you tell me which IC50 is on file for Cc1c(C#Cc2ccccn2)sc2c1C(c1ccc(Cl)cc1)=N[C@@H](CC(=O)NC1CCN(C)CC1)c1nnc(C)n1-2 [Compound 130] ?
13

Could you tell me which IC50 is on file for Cc1c(C#Cc2cnn(C)c2)sc2c1C(c1ccc(Cl)cc1)=N[C@@H](CC(=O)N1CCNCC1)c1nnc(C)n1-2 [Compound 161] ?
76.2

Could you tell me which IC50 is on file for Cc1nnc(C[C@@H]2N=C(c3ccc(Cl)cc3)c3c(sc(C#CC(C)(C)O)c3C)-n3c(C)nnc32)o1 [Compound 144] ?
288

Could you tell me which IC50 is on file for Cc1c(C#Cc2cccnc2)sc2c1C(c1ccc(Cl)cc1)=N[C@@H](CC(N)=O)c1nnc(C)n1-2 [Compound 113] ?
23.9

Could you tell me which IC50 is on file for Cc1c(C#Cc2ccccn2)sc2c1C(c1ccc(Cl)cc1)=N[C@@H](CC(=O)N1CC3(COC3)C1)c1nnc(C)n1-2 [Compound 124] ?
86.3

----------
# assay.comment: Plasma exposure after oral gavage in mice, LC-MS/MS
# Assay type: in vivo
# run.conditions: mouse, in vivo, po, 25 mg/kg
Under this convention, 1 denotes concentration at 1 h strictly below 600 ng/mL and -1 denotes concentration at 1 h at or above 600 ng/mL.

Example entries begin here.
1) Cc1c(C#Cc2cncn2C)sc2c1C(c1ccc(Cl)cc1)=N[C@@H](CC(N)=O)c1nnc(C)n1-2 1
2) Cc1c(C#Cc2cnn(C)c2)sc2c1C(c1ccc(Cl)cc1)=N[C@@H](CC(N)=O)c1nnc(C)n1-2 1
3) CCNC(=O)C[C@@H]1N=C(c2ccc(Cl)cc2)c2c(sc(C#Cc3cnn(C)c3)c2C)-n2c(C)nnc21 1
4) Cc1nnc(C[C@@H]2N=C(c3ccc(Cl)cc3)c3c(sc(C#CC4(C)COC4)c3C)-n3c(C)nnc32)o1 -1

Please turn your attention to the following entry.
State whether 600 ng/mL exceeds concentration at 1 h recorded for Cc1c(C#CC2CCOCC2)sc2c1C(c1ccc(Cl)cc1)=N[C@@H](CC(=O)N1CC(F)(F)C1)c1nnc(C)n1-2 .
-1

----------
# assay.comment: Plasma exposure after oral gavage in mice, LC-MS/MS
# Assay type: in vivo
# run.conditions: mouse, plasma; mice, oral gavage 25 mg/kg, 1 h; read-out: Plasma concentration (ng/mL) 1 h
# concentration at 1 h per record follows
Hi! Could you send only the number? It should be in ng/mL, unit omitted.

# count of solved cases: 5
molecule	unit.of.measurement	endpoint.result
Cc1nnc(C[C@@H]2N=C(c3ccc(Cl)cc3)c3c(sc(C#CC4CCOCC4)c3C)-n3c(C)nnc32)o1 [Compound 145]	ng/mL	6620
Cc1c(C#CC2CCOCC2)sc2c1C(c1ccc(Cl)cc1)=N[C@@H](CC(=O)N1CCC(C)(O)CC1)c1nnc(C)n1-2 [Compound 157]	ng/mL	4630
Cc1c(C#CC2CCOCC2)sc2c1C(c1ccc(Cl)cc1)=N[C@@H](CC(=O)N1CCC(O)CC1)c1nnc(C)n1-2 [Compound 159]	ng/mL	3460
Cc1c(C#Cc2ccccn2)sc2c1C(c1ccc(Cl)cc1)=N[C@@H](CC(=O)N1CCN(C)CC1)c1nnc(C)n1-2 [Compound 119]	ng/mL	632
Cc1c(C#Cc2ccccn2)sc2c1C(c1ccc(Cl)cc1)=N[C@@H](CC(=O)N1CCOCC1)c1nnc(C)n1-2 [Compound 126]	ng/mL	2910

--- query ---
Could you tell me which concentration at 1 h is on file for CCNC(=O)C[C@@H]1N=C(c2ccc(Cl)cc2)c2c(sc(C#Cc3ccccn3)c2C)-n2c(C)nnc21 [Compound 110] ?
1540

----------
# pIC50 per record follows
# measured.on: recombinant BRD4 BD2 (Homo sapiens)
# Construct: for recombinant BRD4 BD1 and BRD4 BD2 proteins
# assay.comment: Competitive fluorescence-polarization (FP) binding assay, BRD4 BD2
# run.conditions: competitive FP, Table 6; read-out: IC50 as determinined in FP assays BRD4 BD2
# Experimental: Fluorescence Polarization (FP) competitive binding studies were carried out using a FAM labeled fluorescent probe, see, e.g., Cpd. […] Equilibrium dissociation constants (Kd) values of the fluorescent probe to BRD4 BD1 and BD2 proteins were determined from protein saturation experiments by monitoring the total fluorescence polarization of mixtures composed with the fluorescent probe at a fixed concentration and proteins with increasing concentrations up to full saturation. […]
// scale note: pIC50 = -log10(conc_M); give the bare number

1) CCNC(=O)C[C@@H]1N=C(c2ccc(Cl)cc2)c2c(sc(C#Cc3ccccn3)c2C)-n2c(C)nnc21 7.56

Could you tell me which pIC50 is on file for Cc1c(C#Cc2ccccn2)sc2c1C(c1ccc(Cl)cc1)=N[C@@H](CC(=O)N1CCC(F)(F)CC1)c1nnc(C)n1-2 ?
7.47

Could you tell me which pIC50 is on file for Cc1nnc(C[C@@H]2N=C(c3ccc(Cl)cc3)c3c(sc(C#CC4CC4)c3C)-n3c(C)nnc32)o1 ?
7.67

Could you tell me which pIC50 is on file for Cc1nnc(C[C@@H]2N=C(c3ccc(Cl)cc3)c3c(sc(C#Cc4ccccn4)c3C)-n3c(C)nnc32)o1 ?
7.56

Could you tell me which pIC50 is on file for Cc1c(C#Cc2cccnc2)sc2c1C(c1ccc(Cl)cc1)=N[C@@H](CC(=O)N1CCOCC1)c1nnc(C)n1-2 ?
7.56

Could you tell me which pIC50 is on file for Cc1c(C#Cc2ccccn2)sc2c1C(c1ccc(Cl)cc1)=N[C@@H](CC(=O)NC1CCN(C)CC1)c1nnc(C)n1-2 ?
7.72

Could you tell me which pIC50 is on file for Cc1nnc(C[C@@H]2N=C(c3ccc(Cl)cc3)c3c(sc(C#CC4CCNCC4)c3C)-n3c(C)nnc32)o1 ?
7.34

Could you tell me which pIC50 is on file for CNC(=O)CCn1cc(C#Cc2sc3c(c2C)C(c2ccc(Cl)cc2)=N[C@@H](C)c2nnc(C)n2-3)cn1 ?
7.35

Could you tell me which pIC50 is on file for Cc1c(C#Cc2ccccn2)sc2c1C(c1ccc(Cl)cc1)=N[C@@H](CC(=O)N1CC(F)(F)C1)c1nnc(C)n1-2 ?
7.10

Could you tell me which pIC50 is on file for Cc1c(C#Cc2cccnc2)sc2c1C(c1ccc(Cl)cc1)=N[C@@H](CC(=O)N1CCN(C)CC1)c1nnc(C)n1-2 ?
8.20

Could you tell me which pIC50 is on file for Cc1c(C#Cc2ccccn2)sc2c1C(c1ccc(Cl)cc1)=N[C@@H](Cc1nnc(C3CC3)o1)c1nnc(C)n1-2 ?
7.22

Could you tell me which pIC50 is on file for Cc1c(C#Cc2ccccn2)sc2c1C(c1ccc(Cl)cc1)=N[C@@H](CC(=O)Nc1ccc(O)cc1)c1nnc(C)n1-2 ?
7.86

Could you tell me which pIC50 is on file for Cc1c(C#Cc2ccccn2)sc2c1C(c1ccc(Cl)cc1)=N[C@@H](CC(=O)N1CCN(C)CC1)c1nnc(C)n1-2 ?
6.85

Could you tell me which pIC50 is on file for CCNC(=O)C[C@@H]1N=C(c2ccc(Cl)cc2)c2c(sc(C#Cc3cccnc3)c2C)-n2c(C)nnc21 ?
8.33
